Values from patent US20210380703A1

system_under_test: T1, human ACVR2A (human, UniProt P27037 20-135, limits assumed); further: test concentration or dose not given here
T1 construct: coated antigen of the initial ELISA; also called activin receptor, type II A
assay_text: ELISA
measured_quantity: optical density (OD)

{"columns": ["binder", "quantitative_result"],
 "data": [
  ["375_E06 (antibody, V domains shown, Group III) VH: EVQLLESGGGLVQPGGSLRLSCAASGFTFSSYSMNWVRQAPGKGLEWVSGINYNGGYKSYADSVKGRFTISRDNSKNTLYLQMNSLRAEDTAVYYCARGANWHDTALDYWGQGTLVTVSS VL: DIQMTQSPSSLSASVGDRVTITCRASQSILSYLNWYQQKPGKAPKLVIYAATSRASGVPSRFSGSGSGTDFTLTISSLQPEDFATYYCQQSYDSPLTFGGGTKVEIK", 3.85],
  ["374_H01 (antibody, V domains shown, Group III) VH: EVQLLESGGGLVQPGGSLRLSCAASGFTFDSYSMNWVRQAPGKGLEWVAGINYNGGYTSYADSVKGRFTISRDNSKNTLYLQMNSLRAEDTAVYYCARGANWHDTHLDYWGQGTLVTVSS VL: DIQMTQSPSSLSASVGDRVTITCRASQSILSYLNWYQQKPGKAPKLVIYAATSLASGVPSRFSGSGSGTDFTLTISSLQPEDFATYYCQQSYENPLTFGGGTKVEIK", 3.08]
]}
